# TEST: AUC (0 to 24 hrs) in Alveolar macrophage of healthy human at 400 mg, po administered as single dose
# Format: ADME, organism-based
# CONDITION SUMMARY: alveolar macrophages, read-out: Drug uptake
RESULT TYPE: AUC

q: Item "CC[C@H]1OC(=O)[C@H](C)C(=O)[C@H](C)[C@@H](O[C@@H]2O[C@H](C)C[C@H](N(C)C)[C@H]2O)[C@@]2(C)C[C@@H](C)/C(=N\C(C)=O)[C@H](C)[C@@H](OC/C(=N\OCc3ccc(-n4cccn4)nc3)CO2)[C@]1(C)O" has what recorded AUC?
a: 2560 µg·h/mL
